Every entry's value here was drawn from the array DNA melting data of Ke et al..

- Procedure summary: melting temperature; melt of duplexes
- Assay context: sodium 0.0675 M; strand 1 µM
Observable: Tm

CGACGTGCCTGATGTGCTG+CAGCACATTCGGCACGTCG (((((((((..((((((((+))))))))..))))))))) | 54.7 °C

Would you be so kind as to report Tm for each listed record?
1. CGACGTGCTCTATGTGCTG+CAGCACATAAAGCACGTCG (((((((((.(((((((((+))))))))).)))))))))
2. CGACGTGCTTCATGTGCTG+CAGCACATCCGGCACGTCG ((((((((...((((((((+))))))))...))))))))
3. CGACGTGCTAAATGTGCTG+CAGCACATAGAGCACGTCG (((((((((..((((((((+))))))))..)))))))))
4. CGACGTGCCGCATGTGCTG+CAGCACATATAGCACGTCG ((((((((...((((((((+))))))))...))))))))
5. CGACGTGCGCGATGTGCTG+CAGCACATTCGGCACGTCG ((((((((...((((((((+))))))))...))))))))
6. CGACGTGCGCCATGTGCTG+CAGCACATCCTGCACGTCG ((((((((...((((((((+))))))))...))))))))
7. CGACGTGCCGAATGTGCTG+CAGCACATACAGCACGTCG ((((((((.(.((((((((+)))))))).).))))))))

54 °C
47.8 °C
52.9 °C
48.2 °C
53.2 °C
47.3 °C
50.4 °C

====

- Procedure summary: melting temperature; melt of duplexes
- Assay context: sodium 0.0675 M; strand 1 µM
Observable: Tm (°C)
One number for each entry, in °C.

CGACGTGCTGTATGTGCTG+CAGCACATCTGGCACGTCG ((((((((...((((((((+))))))))...)))))))) | 50.9
CGACGTGCTCCATGTGCTG+CAGCACATCTAGCACGTCG (((((((((..((((((((+))))))))..))))))))) | 49.5
CGACGTGCTGAATGTGCTG+CAGCACATCCCGCACGTCG ((((((((.(.((((((((+)))))))).).)))))))) | 51
CGACGTGCCAAATGTGCTG+CAGCACATTGAGCACGTCG ((((((((..(((((((((+)))))))))..)))))))) | 53.9
CGACGTGCAGCATGTGCTG+CAGCACATTTGGCACGTCG ((((((((...((((((((+))))))))...)))))))) | 45.4

Would you be so kind as to report Tm for each listed record?
1. CGACGTGCGCGATGTGCTG+CAGCACATCGCGCACGTCG (((((((((((((((((((+)))))))))))))))))))
2. CGACGTGCCCGATGTGCTG+CAGCACATATGGCACGTCG (((((((((..((((((((+))))))))..)))))))))

[69.3, 54]

====

Please respond with reported Tm for every item in the list.
- Procedure summary: melting temperature; melt of duplexes
- Assay context: sodium 0.0675 M; strand 1 µM
Answer by giving the amount and then stating its unit.

CGACGTGCGTCATGTGCTG+CAGCACATTTCGCACGTCG (((((((((..((((((((+))))))))..))))))))) | 53.1 °C
CGACGTGCATGATGTGCTG+CAGCACATCAAGCACGTCG ((((((((.((((((((((+)))))))))).)))))))) | 56.5 °C
CGACGTGCTGGATGTGCTG+CAGCACATACAGCACGTCG ((((((((((.((((((((+)))))))).)))))))))) | 61.4 °C

Looking for the measured Tm of CGACGTGCCTGATGTGCTG+CAGCACATTAAGCACGTCG ((((((((.(.((((((((+)))))))).).)))))))) , can you help? 50.8 °C
